- assay_system: GLP-1 Receptor (Homo sapiens, UniProt P43220)
- Sequence (P43220 24-463, species assumed): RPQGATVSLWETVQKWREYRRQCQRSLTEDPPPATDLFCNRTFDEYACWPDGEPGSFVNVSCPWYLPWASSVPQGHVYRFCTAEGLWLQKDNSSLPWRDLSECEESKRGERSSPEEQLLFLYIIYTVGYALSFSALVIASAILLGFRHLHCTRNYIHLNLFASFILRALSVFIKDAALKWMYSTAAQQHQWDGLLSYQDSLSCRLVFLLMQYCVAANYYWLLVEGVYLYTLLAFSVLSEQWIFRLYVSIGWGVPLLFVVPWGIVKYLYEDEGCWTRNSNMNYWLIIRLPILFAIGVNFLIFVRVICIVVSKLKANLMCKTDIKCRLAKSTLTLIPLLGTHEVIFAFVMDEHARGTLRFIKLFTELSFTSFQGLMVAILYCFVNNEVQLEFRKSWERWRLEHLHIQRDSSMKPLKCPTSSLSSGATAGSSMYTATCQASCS
- test_description: GLP-1R agonist cAMP stimulation assay (HEK293/GLP1R/CRE-LUC cells, cAMP dynamic 2 kit)
- Type: cell-based
- conditions: HEK293/CRE-Luc cell line stably expressing the GLP-1 Receptor; 30 min incubation at 37° C.; read-out: GLP1R cAMP Stimulation DR: EC50
parameter_measured: pEC50
A value of pEC50 is the negative decimal logarithm of a concentration given in moles per litre.

Look over these answered cases.
- compound: "O=C(O)c1ccc2nc(CN3CCC(Cc4cccc(Oc5ccc(Cl)cc5F)n4)CC3)n(C[C@@H]3CCO3)c2n1 [Compound 121a]"
  pEC50: 8.19
- compound: "N#Cc1ccc(Cc2cccc(OC3CCN(Cc4nc5ccc(C(=O)O)nc5n4C[C@@H]4CCO4)CC3)n2)c(F)c1 [Compound 136a]"
  pEC50: 9.36
- compound: "NC(=O)c1ccc2nc(CN3CCC(Oc4ccnc(Cc5ccc(Cl)cc5)n4)CC3)n(C[C@@H]3CCO3)c2n1 [Compound 200a]"
  pEC50: 7.07
- compound: "O=C(O)c1ccc2nc(CN3CC4CC(Oc5ccnc(Cc6ccc(Cl)cc6)n5)CC4C3)n(C[C@@H]3CCO3)c2n1 (some centres unmarked) [Compound 201a]"
  pEC50: 6.44
- compound: "O=C(O)c1ccc2nc(C[C@H]3CC[C@H](Oc4ccnc(Cc5ccc(Cl)cc5)n4)CC3)n(C[C@@H]3CCO3)c2c1 [Compound 176a]"
  pEC50: 9.43

### Prompt Send back GLP-1 Receptor (Homo sapiens, UniProt P43220) pEC50 of O=C(O)c1ccc2nc(CN3CCC(Oc4ccnc(Cc5ccc(Cl)cc5Cl)n4)CC3)n(C[C@@H]3CCO3)c2n1 [Compound 164a] only.
### Response 9.96

### Prompt Provide pEC50, tested on GLP-1 Receptor (Homo sapiens, UniProt P43220), for O=C(O)c1ccc2nc(CN3CCC(Oc4cc(Cc5ccc(Cl)cc5F)ccc4F)CC3)n(C[C@@H]3CCO3)c2n1 [Compound 114a] .
### Response 8.77

### Prompt Answer briefly: pEC50 recorded on GLP-1 Receptor (Homo sapiens, UniProt P43220) for O=C(O)c1ccc2nc(C[C@H]3CC[C@@H](Oc4ccnc(Cc5ccc(Cl)cc5F)n4)CC3)n(C[C@@H]3CCO3)c2n1 [Compound 175a]
### Response 6.64

### Prompt Specify pEC50 for O=C(O)c1ccc2nc(CN3CCC(Oc4ccnc(Cc5ccc(Cl)cc5)n4)CC3)n(C[C@H]3CCOC3)c2n1 [Compound 196a] , system GLP-1 Receptor (Homo sapiens, UniProt P43220).
### Response 8.89

### Prompt Write pEC50 of O=C(O)c1ccc2nc(CN3CCC(Oc4ccc(F)c(Cc5ccc(Cl)cc5F)n4)CC3)n(C[C@@H]3CCO3)c2n1 [Compound 150a] ; system used: GLP-1 Receptor (Homo sapiens, UniProt P43220)
### Response 7.17

### Prompt Report pEC50 under test system GLP-1 Receptor (Homo sapiens, UniProt P43220) for O=C(O)c1ccc2nc(CN3CCC(Oc4ccnc(Cc5ccc(Cl)cc5)n4)CC3)n(Cc3cn[nH]c3)c2n1 .
### Response 9.72

### Prompt Recall the reported pEC50 of CC(=O)Nc1ccc2nc(CN3CCC(Oc4cccc(Cc5ccc(Cl)cc5F)n4)CC3)n(C[C@@H]3CCO3)c2c1 [Compound 134a] on GLP-1 Receptor (Homo sapiens, UniProt P43220) and write it down.
### Response 7.24

### Prompt Report its pEC50 with GLP-1 Receptor (Homo sapiens, UniProt P43220) as the test system: O=C(O)c1ccc2nc(Cc3ccc(Oc4nc(Cc5ccc(Cl)cc5)ncc4F)cc3F)n(C[C@@H]3CCO3)c2c1 [Compound 191a]
### Response 9.54

### Prompt Quote GLP-1 Receptor (Homo sapiens, UniProt P43220) pEC50 for entry O=C(O)c1ccc2nc(CN3CCC(Oc4ccnc(Cc5ccc(Cl)cc5C(F)(F)F)n4)CC3)n(C[C@@H]3CCO3)c2n1 [Compound 166a] .
### Response 9.00

Hey, just so you know, these numbers are from patent US20230071840A1.
